From: patent US20240218022A1

Below: a set of entries, each annotated with reported IC50.
Target: mouse VISTA (mVISTA) (Mus musculus, UniProt Q9D659)
Construct: expressed in transfected cells; host or cells: Human embryonic kidney 293T cells
Assay: Cell-Based Binding High-Content Assay For mVISTA (HC CBA mVISTA)
Conditions: 293T cells expressing mouse VISTA; competition with biotinylated peptide (2 nM); read-out: HC CBA mVISTA IC50
Positions of bridges follow the written chain, without caps; N, C: chain ends. Non-standard residues stand in square brackets, D forms with d. Residues, ends and D or L forms follow the SMILES beside them. Ahp(2) = CCCCC[C@H](N)C(=O)O; NHexGly = CCCCCCNCC(=O)O
Supply the numeric figure in nM, leaving out any unit text.

| compound | system name | recorded measurement |
| --- | --- | --- |
| CCCCCCN1CC(=O)N[C@@H](Cc2ccc(O)cc2)C(=O)N[C@@H](CCCCC)C(=O)N[C@@H](C)C(=O)N[C@@H](CCCNC(=N)N)C(=O)N[C@@H](CC(C)C)C(=O)N[C@@H](CCCCC)C(=O)N2CCC[C@H]2C(=O)N[C@@H](C(C)C)C(=O)N[C@@H](CO)C(=O)N[C@H](C(=O)NCC(=O)O)CSCC(=O)N[C@@H](Cc2ccccc2)C(=O)N[C@@H](Cc2ccc(O)cc2)C(=O)N[C@@H](CC(=O)O)C1=O [Example 1042] ({CH2CO}-FYD[NHexGly]Y[Ahp(2)]ARL[Ahp(2)]PVSCG-OH; thioether N-14) | mouse VISTA (mVISTA) (Mus musculus, UniProt Q9D659) | 36.3 |

Here is another compound to look at.
INPUT: Look at this compound and give its reported IC50. CCCCCCN1CC(=O)N[C@@H](Cc2ccc(O)cc2)C(=O)N[C@@H](CCCCC)C(=O)N[C@@H](CC(N)=O)C(=O)N[C@@H](CCCNC(=N)N)C(=O)N[C@@H](CC(C)C)C(=O)N[C@@H](CCCCC)C(=O)N2CCC[C@H]2C(=O)N[C@@H](C(C)C)C(=O)N[C@@H](CO)C(=O)N[C@H](C(=O)NCC(N)=O)CSCC(=O)N[C@@H](Cc2ccccc2)C(=O)N[C@@H](Cc2ccc(O)cc2)C(=O)N[C@@H](CC(=O)O)C1=O [Example 1031] ({CH2CO}-FYD[NHexGly]Y[Ahp(2)]NRL[Ahp(2)]PVSCG-NH2; thioether N-14)
OUTPUT: 34.7

----------
Target: mouse VISTA (mVISTA) (Mus musculus)
Construct: expressed in transfected cells; host or cells: Human embryonic kidney 293T cells
Sequence (Q9D659 33-308): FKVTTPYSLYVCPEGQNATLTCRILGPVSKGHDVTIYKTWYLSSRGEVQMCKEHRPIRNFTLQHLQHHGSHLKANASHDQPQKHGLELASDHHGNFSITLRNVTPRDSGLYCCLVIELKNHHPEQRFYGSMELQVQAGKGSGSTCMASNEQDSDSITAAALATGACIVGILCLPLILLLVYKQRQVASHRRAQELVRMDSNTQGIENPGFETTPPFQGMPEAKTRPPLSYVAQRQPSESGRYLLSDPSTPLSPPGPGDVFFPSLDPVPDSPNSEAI
Test: Cell-Based Binding High-Content Assay For mVISTA (HC CBA mVISTA)
Settings: read-out: HC CBA mVISTA IC50
Positions of bridges follow the written chain, without caps; N, C: chain ends. Non-standard residues stand in square brackets, D forms with d. Residues, ends and D or L forms follow the SMILES beside them. Ahp(2) = CCCCC[C@H](N)C(=O)O; NMeNle = CCCC[C@H](NC)C(=O)O; NHexGly = CCCCCCNCC(=O)O; Nle = CCCC[C@H](N)C(=O)O
Below: a set of entries, each annotated with reported IC50.
Supply the numeric figure in µM, leaving out any unit text.

| compound | system name | unit descriptor | recorded measurement |
| --- | --- | --- | --- |
| CCCCCCN1CC(=O)N[C@@H](Cc2ccc(O)cc2)C(=O)N[C@@H](CCCC)C(=O)N[C@@H](CC(=O)O)C(=O)N[C@@H](CCCNC(=N)N)C(=O)N[C@@H](CC(C)C)C(=O)N[C@@H](CCCCC)C(=O)N2CCC[C@H]2C(=O)N[C@@H](C(C)C)C(=O)N[C@@H](CC(=O)O)C(=O)N[C@H](C(=O)N[C@@H](CO)C(N)=O)CSCC(=O)N[C@@H](Cc2ccccc2)C(=O)N[C@@H](Cc2c[nH]c3ccccc23)C(=O)N[C@@H](CC(=O)O)C1=O [Example 1366] ({CH2CO}-FWD[NHexGly]Y[Nle]DRL[Ahp(2)]PVDCS-NH2; thioether N-14) | mouse VISTA (mVISTA) (Mus musculus) | µM | 0.0116 |

INPUT: API: value(readout= IC50, system= mouse VISTA (mVISTA) (Mus musculus), query= CCCCCCN1CC(=O)N[C@@H](Cc2ccc(O)cc2)C(=O)N[C@@H](CCCCC)C(=O)N[C@@H](CC(N)=O)C(=O)N[C@@H](CCCNC(=N)N)C(=O)N(C)[C@@H](CCCC)C(=O)N[C@@H](CCCCC)C(=O)N2CCC[C@H]2C(=O)N[C@@H](C(C)C)C(=O)N[C@@H](CO)C(=O)N[C@H](C(=O)NCC(=O)O)CSCC(=O)N[C@@H](Cc2ccccc2)C(=O)N[C@@H](Cc2c[nH]c3ccccc23)C(=O)N[C@@H](CC(=O)O)C1=O [Example 1384] ({CH2CO}-FWD[NHexGly]Y[Ahp(2)]NR[NMeNle][Ahp(2)]PVSCG-OH; thioether N-14) )
OUTPUT: 0.0109
